# credit: ChEMBL document CHEMBL1146126

- measured-on: Prostaglandin E2 receptor EP4 subtype (Rattus norvegicus) (UniProt P43114)
- Sequence (P43114 whole entry): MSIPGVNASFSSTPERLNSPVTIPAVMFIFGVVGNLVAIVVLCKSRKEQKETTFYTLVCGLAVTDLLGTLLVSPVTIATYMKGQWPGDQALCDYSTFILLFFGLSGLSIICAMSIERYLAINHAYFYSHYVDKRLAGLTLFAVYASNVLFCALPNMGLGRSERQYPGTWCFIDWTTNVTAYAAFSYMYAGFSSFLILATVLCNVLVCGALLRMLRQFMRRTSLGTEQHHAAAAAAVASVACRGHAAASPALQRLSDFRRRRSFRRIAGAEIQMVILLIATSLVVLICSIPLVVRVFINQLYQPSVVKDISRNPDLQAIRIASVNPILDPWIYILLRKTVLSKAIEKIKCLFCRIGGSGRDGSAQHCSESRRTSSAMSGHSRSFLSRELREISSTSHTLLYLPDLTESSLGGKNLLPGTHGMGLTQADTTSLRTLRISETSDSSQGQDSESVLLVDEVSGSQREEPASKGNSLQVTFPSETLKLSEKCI
- assay-name: Activity at rat EP4 transfected in HEK293 cells by cAMP accumulation compared to PGE2
- Type: functional, cell-based
result-type: Activity (%)

INSERT INTO results (compound, result_type, scale_unit, obs_value) VALUES
  ('O=C(O)c1ccc(CCCN2C(=O)CC[C@@H]2CCC(O)Cc2ccc(Cl)cc2)s1 (stereo partly drawn)', 'Activity', '%', 90),
  ('COCc1cccc(C[C@H](O)CC[C@H]2CCC(=O)N2CCCCCCC(=O)O)c1', 'Activity', '%', 89),
  ('O=C(O)CCCCCCN1C(=O)CCC1CCC(O)Cc1cccc(Cl)c1 (stereo not drawn)', 'Activity', '%', 89);
